Hey, just so you know, these numbers are from ChEMBL document CHEMBL1687924.

Molecular target: Human immunodeficiency virus type 1 reverse transcriptase (Human immunodeficiency virus 1)
Test: Inhibition of HIV1 3B reverse transcriptase activity
Observed Property: IC50 (nM)
# output: bare number, implied unit nM

# input What IC50 appears in the records for this molecule with Human immunodeficiency virus type 1 reverse transcriptase (Human immunodeficiency virus 1)? CC(=O)O[C@H]1CC(=O)OC(C)(C)[C@@H]2CC(=O)[C@]3(C)[C@H](CC[C@@]4(C)[C@@H](c5ccoc5)OC(=O)[C@H]5O[C@]543)[C@@]12C [NOMILIN]
# output 6.65

# input What IC50 appears in the records for this molecule with Human immunodeficiency virus type 1 reverse transcriptase (Human immunodeficiency virus 1)? CC1(C)O[C@H]2CC(=O)OC[C@]23[C@H]2CC[C@@]4(C)[C@H](c5ccoc5)OC(=O)[C@H]5O[C@]54[C@]2(C)C(=O)C[C@@H]13 [LIMONIN]
# output 8.99
